Record form. Attribute: efficacy. Fill in for each entry.
System: Phaedon cochleariae
Assay: Phaedon cochleariae - spray test
Format: in vivo
Conditions: application rate 100 g/ha; larvae on Chinese cabbage leaf discs; after 7 days
Give bare numbers, in %.

Study these solved cases before continuing.
# Compound, Experimental Target, Unit Descriptor, efficacy
rows = [
    ("O=C(NCC(F)(F)F)c1cc(-c2cnn(-c3c(Cl)cc(C(F)(C(F)(F)F)C(F)(F)F)cc3C(F)(F)F)c2)ccc1Cl [I-T3-58]", "Phaedon cochleariae", "%", 100),
    ("Cc1cc(C(F)(C(F)(F)F)C(F)(F)F)cc(C(F)(F)F)c1-n1cc(-c2cnc(Cl)c(C(=O)NCC3(C#N)CC3)c2)cn1 [I-T3-197]", "Phaedon cochleariae", "%", 100),
    ("Cc1cc(C(F)(C(F)(F)F)C(F)(F)F)cc(C)c1-n1cc(-c2ccc(Cl)c(C(=O)NC3(C#N)CC3)c2)cn1 [I-T3-3]", "Phaedon cochleariae", "%", 100),
    ("N#CC1(NC(=O)c2cc(-c3cnn(-c4ccc(C(F)(C(F)(F)F)C(F)(F)F)cc4C(F)(F)F)c3)ccc2Cl)CC1 [I-T3-53]", "Phaedon cochleariae", "%", 100),
    ("CNc1ncc(-c2cnn(-c3c(Cl)cc(C(F)(C(F)(F)F)C(F)(F)F)cc3Cl)c2)cc1C(=O)NC1CC1 [I-T3-136]", "Phaedon cochleariae", "%", 100),
    ("CCc1cc(C(F)(F)C(F)(F)F)cc(C)c1-n1cc(-c2ccc(Cl)c(C(=O)NC3(C#N)CC3)c2)cn1 [I-T3-80]", "Phaedon cochleariae", "%", 100),
    ("O=C(NC1CC1)c1cc(-c2cnn(-c3c(F)cc(C(F)(C(F)(F)F)C(F)(F)F)cc3F)c2)ccc1Cl [I-T3-61]", "Phaedon cochleariae", "%", 100),
]

Let us move to another entry and its efficacy.
Problem: Give the reported efficacy for this compound. CCS(=O)(=O)c1cc(C(F)(F)F)cc(Cl)c1-n1cc(-c2ccc(Cl)c(C(=O)NC3CC3)c2)cn1 [I-T3-178]
Solution: 100

meta.source: patent US10150737B2
